procedure.summary: Pharmacokinetic study: plasma and brain concentrations after oral gavage
Assay type: in vivo, mice
condition.context: male, C57BL/6, mouse, brain, po, 100 mg/kg
property.label: k el (s⁻¹)
Answer with a number only, understood to be in s⁻¹.

Qu. Query (compound): CC(C)NC(=O)COc1cccc(-c2nc(Nc3ccc4[nH]ncc4c3)c3ccccc3n2)c1 ; field requested: k el
Ans. 8.89e-05

====

procedure.summary: Pharmacokinetic study: plasma and brain concentrations after oral gavage
Type: in vivo, mice
condition.context: male, C57BL/6, mouse, brain, po, 100 mg/kg
property.label: AUC(0-t) (ng·h/mL)
Answer with a number only, understood to be in ng·h/mL.

Qu. Query (compound): CC(C)NC(=O)COc1cccc(-c2nc(Nc3ccc4[nH]ncc4c3)c3ccccc3n2)c1 ; field requested: AUC(0-t)
Ans. 2280
